// data source = paper PMC12155096

// UniProt P11712 log10 of IC50 records
Sequence (P11712 whole entry): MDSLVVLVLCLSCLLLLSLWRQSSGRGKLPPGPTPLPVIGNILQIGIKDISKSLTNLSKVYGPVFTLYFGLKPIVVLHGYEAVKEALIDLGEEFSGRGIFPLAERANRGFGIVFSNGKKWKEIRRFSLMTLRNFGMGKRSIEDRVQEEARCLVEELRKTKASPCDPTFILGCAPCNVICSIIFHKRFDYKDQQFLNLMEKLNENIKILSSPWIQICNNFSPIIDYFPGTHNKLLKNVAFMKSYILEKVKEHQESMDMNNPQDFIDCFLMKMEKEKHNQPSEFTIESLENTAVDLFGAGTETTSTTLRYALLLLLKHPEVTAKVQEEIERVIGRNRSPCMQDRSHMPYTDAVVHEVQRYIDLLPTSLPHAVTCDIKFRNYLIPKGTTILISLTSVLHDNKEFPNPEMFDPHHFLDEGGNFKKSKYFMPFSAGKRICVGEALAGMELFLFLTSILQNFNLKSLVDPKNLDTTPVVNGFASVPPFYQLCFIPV
Scale: log10; quantity: IC50; unit before log: µM

Q: Item: O=C1CCCc2c1cc1ccc3cccc4ccc2c1c34 [9,10-Dihydrobenzo[a]pyren-7(8H)-one] Test system: UniProt P11712 Read-out: log10 of IC50 Value: ?
Result: 0.73

Q: Can you look up log10 of IC50 on UniProt P11712 for CCCCCCCCCCCCCC[P+](CCCC)(CCCC)CCCC.CCCCCCCCCCCCc1ccc(S(=O)(=O)[O-])cc1 ?
Result: 1.20

Q: State its log10 of IC50 on UniProt P11712: Cl.Clc1ccc(Cn2c(CN3CCCC3)nc3ccccc32)cc1 [Clemizole hydrochloride]
Result: 1.21

Q: Item: O=C(Nc1ccccc1SSc1ccccc1NC(=O)c1ccccc1)c1ccccc1 [2,2'-Dibenzoylaminodiphenyl disulfide] Test system: UniProt P11712 Read-out: log10 of IC50 Value: ?
Result: -0.24

Q: Form field - read-out: log10 of IC50; system: UniProt P11712; submitted item: O=S(=O)([O-])C(F)(F)C(F)(F)C(F)(F)C(F)(F)C(F)(F)C(F)(F)C(F)(F)C(F)(F)F.[K+] [PFOS-K]
Result: -0.21

Q: Request body: readout log10 of IC50, system UniProt P11712, query Cc1cc(-c2cc(C)c(N)c(C)c2)cc(C)c1N [3,3',5,5'-Tetramethylbenzidine] . Return the value.
Result: 1.33

Q: Could you share what log10 of IC50 was measured for CCC(COC(=O)c1cc(OC)c(OC)c(OC)c1)(c1ccccc1)N(C)C.O=C(O)/C=C\C(=O)O (stereo not shown) [Trimebutine maleate] , tested on UniProt P11712?
Result: 1.19

---

Biological target: UniProtKB P05177
Sequence (P05177 1-516): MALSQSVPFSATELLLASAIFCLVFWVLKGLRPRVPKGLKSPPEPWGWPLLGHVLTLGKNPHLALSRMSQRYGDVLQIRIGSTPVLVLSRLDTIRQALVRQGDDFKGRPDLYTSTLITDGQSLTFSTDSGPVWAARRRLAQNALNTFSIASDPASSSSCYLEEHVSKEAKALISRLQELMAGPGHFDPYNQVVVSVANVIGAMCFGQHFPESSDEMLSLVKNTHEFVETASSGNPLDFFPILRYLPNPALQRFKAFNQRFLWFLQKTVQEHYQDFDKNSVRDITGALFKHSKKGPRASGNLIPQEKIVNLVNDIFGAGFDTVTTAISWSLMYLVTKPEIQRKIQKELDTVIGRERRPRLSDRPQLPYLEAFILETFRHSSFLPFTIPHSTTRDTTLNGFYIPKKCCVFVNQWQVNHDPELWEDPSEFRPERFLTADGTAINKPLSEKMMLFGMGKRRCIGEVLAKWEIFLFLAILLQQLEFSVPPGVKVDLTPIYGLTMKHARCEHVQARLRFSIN
Experiment: biochemical
Where a name gives a salt, the structure may show the parent alone.
Could you please report measured log10 of AC50 for the items listed next?
The figures below represent log10 of AC50, where AC50 is stated in µM.

Q: # query: log10 of AC50 of entry CC(C)c1ccccc1O [2-Isopropylphenol]
Result: 1.68

Q: Query (compound): CCOc1ccccc1C(N)=O [2-Ethoxybenzamide] ; field requested: log10 of AC50
Result: 1.23

Q: Data request, read-out log10 of AC50, for O=S(=O)(c1ccccc1)c1ccc(Cl)cc1 [4-Chlorophenyl phenyl sulfone]
Result: 1.64

Q: Entry O=C(c1ccc(O)cc1)c1ccc(O)cc1 [4,4'-Dihydoxybenzophenone] : reported log10 of AC50 = ?
Result: 1.59

Q: Reported log10 of AC50 for CCCCCCCCOS(=O)(=O)O [Sodium octyl sulfate] : what is it?
Result: 1.84

Q: Given the compound CCCCOC(=O)CCCCC(=O)OCCCC [Dibutyl hexanedioate] , what is its reported log10 of AC50?
Result: 1.62

Q: Item under review: O=C1c2ccccc2-c2ccccc21 [9-Fluorenone] . Reported log10 of AC50?
Result: -0.35

Q: Tell me the measured log10 of AC50 of CCNc1nc(NC(C)CC)nc(OC)n1 (centres unmarked) [Secbumeton] , please.
Result: 1.42

Q: Entry COC(=O)c1cccc(C(=O)OC)c1 [Dimethyl isophthalate] has what log10 of AC50?
Result: 0.99

Q: Looking for the measured log10 of AC50 of COc1ccc(COC(C)=O)cc1 [4-Methoxybenzyl acetate] , can you help?
Result: 1.46

Q: log10 of AC50 for O=C(Oc1ccccc1)c1ccccc1 [Phenyl benzoate] ?
Result: 1.85
